Where do these numbers come from? They come from PubChem BioAssay.

# key: entry, value: z-score
Assay: JC-1 mitochondrial signal, unstimulated MM1S myeloma – cell-based, JC-1 fluorescence, 24 h, 100 nL compound, profiling panel (AID 1170); also: test concentration not given here
Details: MM1S mitochondrial potential, higher = more signal
Please give the numeric answer without any surrounding text.

Prompt line: For C=CC[C@@]1(C(=O)NCc2ccccc2)N=C(c2ccc(OCCCO)cc2)O[C@@H]1c1ccccc1CN=[N+]=[N-] , what is its reported z-score?
Response line: -0.975

Prompt line: For COc1cc2c(cc1O)C(c1ccc(CN3CCCC3)cc1)N(Cc1sc3ccccc3c1Cl)CC2 (centres undefined) , what is its reported z-score?
Response line: -0.774

====

Assay: budding yeast growth changes without added modifier – OD600, strain BY4716, 24 h, basal condition, primary screen (AID 1173)
Conditions: S. cerevisiae BY4716 growth, OD600, 24 h; higher = more signal, called active from +8 up or from −8 down
Kindly return rule met if reported z-score is no lower than 0.5; return rule not met if it is lower.

# example entries with known answers
Prompt line: Decide: z-score of [N-]=[N+]=NCc1ccccc1C[C@]1(C(=O)NCC(O)CO)COC(c2ccc(OCCCO)cc2)=N1 (stereo not given in full) >= 0.5?
Response line: rule not met

Prompt line: Decide: z-score of C=CC[C@@]1(C(=O)NCc2ccccc2)N=C(c2ccc(OCCCO)cc2)O[C@@H]1c1ccccc1CN=[N+]=[N-] >= 0.5?
Response line: rule met

Prompt line: Decide: z-score of CN(C)CCCC[C@@H]1NC(=O)[C@@H]2C[C@H](C(=O)NCCCCCCN)[C@H](c3ccc(O)cc3)N2C1=O >= 0.5?
Response line: rule met

Prompt line: Decide: z-score of CO[C@H]1O[C@H](CO)[C@@H](OC(=O)Nc2ccccc2-c2ccccc2)[C@H](OC(=O)Nc2ccccc2-c2ccccc2)[C@H]1OC(=O)Nc1ccccc1-c1ccccc1 >= 0.5?
Response line: rule met

Prompt line: Decide: z-score of C=CCCN(CC#C[C@H]1Oc2ccccc2S(=O)(=O)N2CCC[C@@H]12)S(=O)(=O)c1ccc(C)cc1 >= 0.5?
Response line: rule not met

Prompt line: Decide: z-score of O=C1C2C=CC(C(O)c3ccc(-c4ccccc4)s3)N(Nc3ccccc3F)C2C(=O)N1c1ccccc1 (stereo not given) >= 0.5?
Response line: rule not met

More entries:
Prompt line: Decide: z-score of CC(C)(C)OC(=O)CC[C@]1(C(=O)NCC(O)CO)N=C(c2ccc(OCCCO)cc2)O[C@H]1c1ccccc1CN=[N+]=[N-] (stereo not given in full) >= 0.5?
Response line: rule not met

Prompt line: Decide: z-score of O=C1C2C=CC(C(O)C3CC=CCC3)N(n3cnnc3)C2C(=O)N1Cc1ccccc1 (stereo not given) >= 0.5?
Response line: rule not met

Prompt line: Decide: z-score of CCN(CC)c1ccc(N2CC=CC34O[C@@H]5/C=C\CCCOC(=O)C5[C@H]3C(=O)N(CCCO)[C@@H]4C2=O)cc1 (stereo not given in full) >= 0.5?
Response line: rule met

Prompt line: Decide: z-score of O=c1cccc(-c2ccc3ccccc3c2)o1 >= 0.5?
Response line: rule not met

====

Experiment: growth of efflux-deficient E. coli DRC39 – strain DRC39, OD650, 24 h, E. coli filamentation inducers, primary screen (AID 1178);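 also: growth measured as culture turbidity by optical density at 650 nm; test concentration not given here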
Conditions: E. coli DRC39 acrAB, higher = more signal, called active from +8 up or from −8 down
Kindly return criterion met if reported z-score is no lower than 0.3; return criterion not met if it is lower.

Prompt line: Decide: z-score of CCCCN1CC=CC23O[C@@H]4/C=C\CCCOC(=O)C4[C@H]2C(=O)N(C(C)CO)[C@@H]3C1=O (some centres undefined) >= 0.3?
Response line: criterion met

Prompt line: Decide: z-score of CCCC[C@H]1C[C@@H]1[C@@H]1N(P(=O)(c2ccccc2)c2ccccc2)[C@](CO)(c2ccccc2)CC12CC2 >= 0.3?
Response line: criterion not met

Prompt line: Decide: z-score of C=CCNC(=O)[C@@H]1[C@H]2C(=O)O[C@H](c3ccccc3)[C@H](c3ccccc3)N2[C@H](c2ccccc2OCCO)[C@@]12C(=O)N(C(=O)OCCOC)c1ccc(C#CCC(C(=O)OC)C(=O)OC)cc12 >= 0.3?
Response line: criterion not met

Prompt line: Decide: z-score of C=C(/C(=C/C[C@@H](OC(=O)c1ccncc1)c1ccc(CO)o1)c1cc(C(=O)OC)ccc1OC)C(C)C >= 0.3?
Response line: criterion met

Prompt line: Decide: z-score of Cc1ccc([C@H]2C(C(=O)O)=C[C@@H](C(C)C)N2S(=O)(=O)c2ccc(C)cc2)cc1 >= 0.3?
Response line: criterion not met

Prompt line: Decide: z-score of COC(=O)[C@@]1(Cc2ccc(F)cc2)[C@H]2c3cc(C(=O)N(C)C)n(Cc4ccccn4)c3C[C@H]2CN1C(=O)c1ccccc1 >= 0.3?
Response line: criterion not met

Prompt line: Decide: z-score of O=C1C2C=CC(C(O)c3ccc(Br)cc3)N(n3cnnc3)C2C(=O)N1Cc1ccccc1 (centres undefined) >= 0.3?
Response line: criterion not met

Prompt line: Decide: z-score of O=C1O[C@@H](c2ccccc2)[C@@H](c2ccccc2)N2[C@@H](c3ccccc3OCCO)[C@]3(C(=O)Nc4ccc(C#CC5(O)CCCCCC5)cc43)[C@@H](C(=O)NC[C@H](O)c3ccccc3)[C@H]12 >= 0.3?
Response line: criterion not met

More entries:
Prompt line: Decide: z-score of COc1cc(NN2C(C(O)c3ccccc3)C=CC3C(=O)N(c4ccccc4)C(=O)C32)cc(OC)c1OC (centres undefined) >= 0.3?
Response line: criterion met

Prompt line: Decide: z-score of CC1(C)C(=O)C(c2ccccc2)=C2CN3C(=O)N(CCc4ccccc4)C(=O)C3(Cc3ccccc3)C=C21 (centres undefined) >= 0.3?
Response line: criterion not met

Prompt line: Decide: z-score of O=C(NCC(O)CO)[C@@]1(Cc2ccccc2)N=C(c2ccc(OCCCO)cc2)O[C@H]1c1ccccc1 (some centres undefined) >= 0.3?
Response line: criterion met

Prompt line: Decide: z-score of C[C@]1(C(=O)NCC(F)(F)F)c2ccccc2C(=O)N(Cc2cc(F)cc(C(F)(F)F)c2)[C@H]1c1ccc(CO)cc1 >= 0.3?
Response line: criterion not met

Prompt line: Decide: z-score of COCCCNC(=O)[C@@]1(Cc2ccccc2I)c2ccccc2C(=O)N(Cc2ccccc2)[C@H]1c1ccc(CO)cc1 >= 0.3?
Response line: criterion met

Prompt line: Decide: z-score of COCCOC(=O)N1C(=O)[C@@]2(c3cc(C#CC4(O)CCCCCC4)ccc31)[C@H](c1ccc(O)cc1)N1[C@H](c3ccccc3)[C@H](c3ccccc3)OC(=O)[C@H]1[C@@H]2C(=O)N1CCc2cc(OC)c(OC)cc2C1 >= 0.3?
Response line: criterion met

====

Assay: small molecules captured by biotinylated probe aFSTL3 – biochemical, small-molecule microarray, fluorescence 635/667, stem cell growth factor project, primary screen (AID 1064);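 also: measures binding of the biotinylated anti-FSTL3 antibody to printed compounds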
Conditions: higher = more signal
# key: entry, value: composite z-score
Please give the numeric answer without any surrounding text.

Prompt line: For O=C1C[C@@](C(=O)O)(c2ccc([N+](=O)[O-])cc2)[C@@H](c2ccc(CO)cc2I)N1C1CCCCC1 , what is its reported composite z-score?
Response line: 0.0508

Prompt line: For O=C1O[C@H](c2ccccc2)[C@H](c2ccccc2)N2[C@H]1[C@@H](C(=O)NC[C@H](O)c1ccccc1)[C@]1(C(=O)Nc3ccc(C#CC4(O)CCCCCC4)cc31)[C@H]2c1ccccc1OCCO , what is its reported composite z-score?
Response line: -0.267

Prompt line: For C=CCOC(=O)[C@@H]1[C@H]2C(=O)O[C@H](c3ccccc3)[C@H](c3ccccc3)N2[C@H](c2ccc(OCCOC(=O)[C@H]3C[C@H]4C(=O)N[C@@H](CC(C)C)C(=O)N4[C@H]3c3cccc(OCCO)c3)cc2)[C@@]12C(=O)Nc1ccc(I)cc12 , what is its reported composite z-score?
Response line: -0.187

Prompt line: For Cc1ccc(S[C@]2(C(=O)NCC(F)(F)F)CC(=O)N(C3Cc4ccccc4C3)[C@@H]2c2ccc(CO)cc2I)cc1 , what is its reported composite z-score?
Response line: 1.27

Prompt line: For O[C@@H](Cc1ccccc1)[C@@H](/C=C/c1ccccc1)NCc1ccccc1Br , what is its reported composite z-score?
Response line: 0.686

More entries:
Prompt line: For COc1c(C)cc(-c2cc3c(c(-c4ccccc4)n2)[Si](C(C)C)(C(C)C)O[C@H]3c2ccccc2)cc1C , what is its reported composite z-score?
Response line: -0.409

Prompt line: For O=c1cccc(-c2cccc3ccccc23)o1 , what is its reported composite z-score?
Response line: 0.745

====

Target: Left-right determination factor 2 (Homo sapiens) (UniProt O00292)
Sequence (O00292 whole entry, looked up): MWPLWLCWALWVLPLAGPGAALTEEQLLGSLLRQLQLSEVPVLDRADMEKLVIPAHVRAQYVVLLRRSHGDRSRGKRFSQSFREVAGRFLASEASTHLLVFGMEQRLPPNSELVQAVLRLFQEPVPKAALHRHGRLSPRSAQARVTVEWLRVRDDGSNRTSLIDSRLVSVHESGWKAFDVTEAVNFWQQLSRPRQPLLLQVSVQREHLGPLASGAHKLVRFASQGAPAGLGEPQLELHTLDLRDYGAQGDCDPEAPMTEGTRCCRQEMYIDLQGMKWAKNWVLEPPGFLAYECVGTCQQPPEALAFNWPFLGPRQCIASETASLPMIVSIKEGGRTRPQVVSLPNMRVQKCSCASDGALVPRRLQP
Assay: small molecules binding LEFTY2 protein – biochemical, small-molecule microarray, 635 nm fluorescence scan, primary screen (AID 1110)
Settings: higher = more signal
metric: composite z-score
Please give the numeric answer without any surrounding text.

Reference set, count: 2
Prompt line: For C=CCN1C(=O)[C@]2(Cc3ccccc31)N=C(c1ccc(OCCCO)cc1)O[C@@H]2c1ccccc1 , what is its reported composite z-score?
Response line: 0.319

Prompt line: For COCCOC(=O)N1C(=O)[C@@]2(c3cc(C#CCC(C(=O)OC)C(=O)OC)ccc31)[C@H](c1ccc(OCCO)cc1)N1[C@H](c3ccccc3)[C@H](c3ccccc3)OC(=O)[C@H]1[C@@H]2C(=O)NC[C@H](O)c1ccccc1 , what is its reported composite z-score?
Response line: 0.59

Could you now look at the following molecule, please?
Prompt line: For COc1ccc([Si](C)(C)[C@H]2[C@H](CC(=O)N3Cc4ccccc4C[C@H]3CO)O[C@@]3(C(=O)N(Cc4cccc(I)c4)c4ccccc43)[C@@H]2C)cc1 , what is its reported composite z-score?
Response line: 0.947
